Reported Kd values are given for each entry in this list.
biological target: T1, IFN-αJ1 (human, UniProt P01567 24-189); experiment: ProteOn SPR, cell supernatant;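 also: each binding measurement used just a single antigen concentration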
T1 construct: Recombinant, HEK293; also called IFN-α7
Write the value in pM as a bare number.

BINDER	UNIT	RECORDED NUMBER
IFWM3405 (antibody, IgG1, V domains shown, mAb; IgG1/kappa said of the parent and of selected mAbs; also called IFWB3140) VH: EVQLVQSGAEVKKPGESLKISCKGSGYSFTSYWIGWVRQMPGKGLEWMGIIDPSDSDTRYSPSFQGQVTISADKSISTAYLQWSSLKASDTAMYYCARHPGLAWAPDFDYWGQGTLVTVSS VL: DIQMTQSPSSLSASVGDRVTITCRASQSIANNNLNWYQQKPGKAPKLLIHWASSLQSGVPSRFSGSGSGTDFTLTISSLQPEDFATYYCQQGYDTPFTFGQGTKVEIK	pM	36

Moving on to another binder below.
Specify measured Kd for IFWM3381 (antibody, IgG1, V domains shown, mAb; IgG1/kappa said of the parent and of selected mAbs; also called IFWB3116) VH: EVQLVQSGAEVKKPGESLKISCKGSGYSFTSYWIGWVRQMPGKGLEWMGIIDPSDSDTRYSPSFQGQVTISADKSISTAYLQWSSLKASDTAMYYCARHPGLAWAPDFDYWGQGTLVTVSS VL: DIQMTQSPSSLSASVGDRVTITCRASQSIGSFLNWYQQKPGKAPKLLIYFASSLQSGVPSRFSGSGSGTDFTLTISSLQPEDFATYYCQQSYSIPITFGQGTKVEIK .
121
